Here the recorded IC50 is given for each entry.
System: NCI-H2227;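 note: growth inhibition of the human cell line, read out with a cell viability assay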
Test: cells
Format: functional, cell-based, Homo sapiens
Conditions: Homo sapiens, NCI-H2227
Description: SANGER: Inhibition of human NCI-H2227 cell growth in a cell viability assay.

- CCC/C=C/C=C/C(=O)O[C@H]1/C(=C/C(=O)OC)C[C@H]2C[C@H]([C@@H](C)O)OC(=O)C[C@H](O)C[C@@H]3C[C@H](OC(C)=O)C(C)(C)[C@](O)(C[C@@H]4C/C(=C/C(=O)OC)C[C@H](/C=C/C(C)(C)[C@]1(O)O2)O4)O3: > 0.008 µM

Now for a further compound.
// assay NCI-H2227, entry COc1cc(N2CCN(C)CC2)ccc1Nc1ncc2c(n1)N(C)c1ccccc1C(=O)N2C , IC50 value = > 8 µM

###

Test system: NCI-H524;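 note: growth inhibition of human NCI-H524 cells, read out through a cell viability assay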
Assay: cells
Type: functional, cell-based, Homo sapiens
Conditions: Homo sapiens, NCI-H524
Description: SANGER: Inhibition of human NCI-H524 cell growth in a cell viability assay.
Counter-ions that a name gives are not always drawn.
Here the recorded IC50 is given for each entry.

* COC1=CC(c2cc3ccccc3[nH]2)=N/C1=C\c1[nH]c(C)cc1C [OBATOCLAX MESYLATE] | 9.59 µM
* Cc1cc([N+](=O)[O-])ccc1NS(=O)(=O)c1cc(Cl)ccc1Cl | 12.5 µM
* COc1cc(-c2nn([C@H]3CC[C@H](N4CCN(C(C)=O)CC4)CC3)c3ncnc(N)c23)ccc1NC(=O)c1cc2ccccc2n1C | > 5.12 µM

For reference, reported IC50 for C#Cc1cccc(Nc2ncnc3cc(OCCOC)c(OCCOC)cc23)c1 stands at > 2 µM

For reference, reported IC50 for OCCCNc1cc(-c2ccnc(Nc3cccc(Cl)c3)n2)ccn1 stands at > 0.256 µM

For reference, reported IC50 for COc1cccc2c1C(=O)c1c(O)c3c(c(O)c1C2=O)C[C@@](O)(C(=O)CO)C[C@@H]3O[C@H]1C[C@H](N)[C@H](O)[C@H](C)O1 stands at > 1.02 µM

For reference, reported IC50 for Nc1ccn([C@@H]2O[C@H](CO)[C@@H](O)C2(F)F)c(=O)n1 stands at > 1.02 µM

###

Here the recorded IC50 is given for each entry.
Test system: SCC-3;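 note: cell viability assay measuring inhibition of SCC-3 cell growth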
Assay: cells
Format: functional, cell-based, Homo sapiens
Details: Homo sapiens, SCC-3
Description: SANGER: Inhibition of human SCC-3 cell growth in a cell viability assay.
Write the answer as a number in nM, unit excluded.

The examples below pair each entry with its known result.
• COc1cc2ncn(-c3cc(OCc4ccccc4C(F)(F)F)c(C(N)=O)s3)c2cc1OC [GW843682X] = 48.7
• OCCCNc1cc(-c2ccnc(Nc3cccc(Cl)c3)n2)ccn1 = 37.8
• CC[C@H](CO)Nc1nc(NCc2ccccc2)c2ncn(C(C)C)c2n1 = 14300

For reference, reported IC50 for Nc1ccn([C@@H]2O[C@H](CO)[C@@H](O)C2(F)F)c(=O)n1 stands at 89.6

###

System: COLO-800
Assay: cells
Format: functional, cell-based, Homo sapiens
Details: colo-800
Description: SANGER: Inhibition of human COLO-800 cell growth in a cell viability assay.
measured.metric: IC50
Express your answer as a number followed by its unit.

// assay COLO-800, entry BLEOMYCIN , IC50 value = 2210 nM

###

Here the recorded pIC50 is given for each entry.
Tested on: BB49-HNC;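 note: cell viability assay read-out, reported as inhibition of BB49-HNC cell growth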
Assay: cells
Format: functional, cell-based, Homo sapiens
Settings: Homo sapiens, BB49-HNC
Description: SANGER: Inhibition of human BB49-HNC cell growth in a cell viability assay.
pIC50: −log10 of the molar value. Counter-ions that a name gives are not always drawn.

• Nc1cccc2c1CN(C1CCC(=O)NC1=O)C2=O (stereo not drawn) [LENALIDOMIDE] = < 5.30
• CO[C@H]1C[C@@H]2CC[C@@H](C)[C@@](O)(O2)C(=O)C(=O)N2CCCC[C@H]2C(=O)O[C@H]([C@H](C)C[C@@H]2CC[C@@H](OC(=O)C(C)(CO)CO)[C@H](OC)C2)CC(=O)[C@H](C)/C=C(\C)[C@@H](O)[C@@H](OC)C(=O)[C@H](C)C[C@H](C)/C=C/C=C/C=C/1C [TEMSIROLIMUS] = < 6.70
• Cc1cn(-c2cc(NC(=O)c3ccc(C)c(Nc4nccc(-c5cccnc5)n4)c3)cc(C(F)(F)F)c2)cn1 [NILOTINIB] = < 5.70
• O=C(O)c1ccc(-c2c[nH]c3ncc(-c4ccccc4)cc23)cc1C1CCCC1 [GSK-650394] = < 4.80
• N#Cc1c(O)c2c(-c3ccc(-c4ccccc4O)cc3)csc2[nH]c1=O = < 5.99
• COc1cc2ncn(-c3cc(OCc4ccccc4C(F)(F)F)c(C(N)=O)s3)c2cc1OC [GW843682X] = < 6.59
• Cc1cc([N+](=O)[O-])ccc1NS(=O)(=O)c1cc(Cl)ccc1Cl = < 4.49

For reference, reported pIC50 for COC1=CC(c2cc3ccccc3[nH]2)=N/C1=C\c1[nH]c(C)cc1C [OBATOCLAX MESYLATE] stands at 5.87

###

Test system: A-427;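 note: growth inhibition of human A-427 cells, read out by a cell viability assay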
Experiment: cells
Type: functional, cell-based, Homo sapiens
Details: Homo sapiens, A-427
Description: SANGER: Inhibition of human A427 cell growth in a cell viability assay.
measured.metric: IC50 (µM)
Write the answer as a number in µM, unit excluded.

The examples below pair each entry with its known result.
* CN(C)C(=N)NC(=N)N [METFORMIN] | 7170
* CC(C)c1ccccc1Cc1cc(C(=O)Nc2ccc(S(=O)(=O)c3ccccc3C(C)(C)C)cc2)c(O)c(O)c1O | 0.0447
* Nc1ccn([C@@H]2O[C@H](CO)[C@@H](O)C2(F)F)c(=O)n1 [GEMCITABINE] | 0.324

For reference, reported IC50 for CO[C@H]1C[C@@H]2CC[C@@H](C)[C@@](O)(O2)C(=O)C(=O)N2CCCC[C@H]2C(=O)O[C@H]([C@H](C)C[C@@H]2CC[C@@H](OC(=O)C(C)(CO)CO)[C@H](OC)C2)CC(=O)[C@H](C)/C=C(\C)[C@@H](O)[C@@H](OC)C(=O)[C@H](C)C[C@H](C)/C=C/C=C/C=C/1C [TEMSIROLIMUS] stands at 0.183

###

Test system: MC116
Test: cells
Assay type: functional, cell-based, Homo sapiens
Conditions: mc116
Description: SANGER: Inhibition of human MC116 cell growth in a cell viability assay.
Here the recorded pIC50 is given for each entry.
FYI, pIC50 means -log10 of a concentration in mol per litre.

• CISPLATIN = 4.06

Now for a further sequence.
// assay MC116, entry BLEOMYCIN , pIC50 value = 5.68

###

Tested on: NCI-H720;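 note: growth inhibition of human NCI-H720 cells determined by a cell viability assay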
Test: cells
Assay type: functional, cell-based, Homo sapiens
Settings: nci-h720
Description: SANGER: Inhibition of human NCI-H720 cell growth in a cell viability assay.
measured.metric: pIC50
FYI, pIC50 means -log10 of a concentration in mol per litre.

For reference, reported pIC50 for BLEOMYCIN stands at 3.99

###

System: TYK-nu
Experiment: cells
Type: functional, cell-based, Homo sapiens
Conditions: tyk-nu
Description: SANGER: Inhibition of human TYK-nu cell growth in a cell viability assay.
measured.metric: pIC50
FYI, pIC50 means -log10 of a concentration in mol per litre.

For reference, reported pIC50 for BLEOMYCIN stands at 5.52

###

System: YAPC;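 note: growth inhibition of YAPC cells, measured with a cell viability assay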
Experiment: cells
Type: functional, cell-based, Homo sapiens
Details: yapc
Description: SANGER: Inhibition of human YAPC cell growth in a cell viability assay.
measured.metric: IC50 (µM)
Write the answer as a number in µM, unit excluded.

For reference, reported IC50 for CISPLATIN stands at 1160

###

Test system: KMS-12-PE
Experiment: cells
Assay type: functional, cell-based, Homo sapiens
Conditions: Homo sapiens, KMS-12-PE
Description: SANGER: Inhibition of human KMS-12-PE cell growth in a cell viability assay.
pIC50: −log10 of the molar value.
measured.metric: pIC50

- COc1cc(N2CCN(C)CC2)ccc1Nc1ncc2c(n1)N(C)c1ccccc1C(=O)N2C: < 5.10
- Oc1ccc2ccccc2c1SSc1c(O)ccc2ccccc12: < 4.49

For reference, reported pIC50 for CCN(CC)CCNC(=O)c1c(C)[nH]c(/C=C2\C(=O)Nc3ccc(F)cc32)c1C stands at < 5.10

For reference, reported pIC50 for O=C(O)c1ccc(-c2c[nH]c3ncc(-c4ccccc4)cc23)cc1C1CCCC1 stands at < 4.80

For reference, reported pIC50 for CC(=O)O[C@H]1C(=O)[C@@]2(C)[C@H]([C@H](OC(=O)c3ccccc3)[C@]3(O)C[C@H](OC(=O)[C@H](O)[C@@H](NC(=O)c4ccccc4)c4ccccc4)C(C)=C1C3(C)C)[C@]1(OC(C)=O)CO[C@@H]1C[C@@H]2O stands at < 6.99

For reference, reported pIC50 for COc1cc2ncn(-c3cc(OCc4ccccc4S(C)(=O)=O)c(C#N)s3)c2cc1OC [GSK-319347A] stands at < 5.30

For reference, reported pIC50 for C#Cc1cccc(Nc2ncnc3cc(OCCOC)c(OCCOC)cc23)c1 stands at < 5.70

For reference, reported pIC50 for COc1cccc2c1C(=O)c1c(O)c3c(c(O)c1C2=O)C[C@@](O)(C(=O)CO)C[C@@H]3O[C@H]1C[C@H](N)[C@H](O)[C@H](C)O1 stands at 6.38

###

Here the recorded pIC50 is given for each entry.
Tested on: CHP-212
Assay: cells
Format: functional, cell-based, Homo sapiens
Conditions: Homo sapiens, CHP-212
Description: SANGER: Inhibition of human CHP-212 cell growth in a cell viability assay.
Structures can show the parent of a compound that is named as a salt.
FYI, pIC50 means -log10 of a concentration in mol per litre.

The examples below pair each entry with its known result.
* CO[C@H]1C[C@@H]2CC[C@@H](C)[C@@](O)(O2)C(=O)C(=O)N2CCCC[C@H]2C(=O)O[C@H]([C@H](C)C[C@@H]2CC[C@@H](OC(=O)C(C)(CO)CO)[C@H](OC)C2)CC(=O)[C@H](C)/C=C(\C)[C@@H](O)[C@@H](OC)C(=O)[C@H](C)C[C@H](C)/C=C/C=C/C=C/1C [TEMSIROLIMUS] | 7.28
* Nc1ccn([C@@H]2O[C@H](CO)[C@@H](O)C2(F)F)c(=O)n1 [GEMCITABINE] | 8.56
* CC(C)c1ccccc1Cc1cc(C(=O)Nc2ccc(S(=O)(=O)c3ccccc3C(C)(C)C)cc2)c(O)c(O)c1O | 5.34
* Oc1ccc2ccccc2c1SSc1c(O)ccc2ccccc12 | 5.04

For reference, reported pIC50 for Cc1cc([N+](=O)[O-])ccc1NS(=O)(=O)c1cc(Cl)ccc1Cl stands at 5.59

For reference, reported pIC50 for COc1cc2c(Nc3ccc(NC(=O)c4ccccc4)cc3)ncnc2cc1OCCCN1CCOCC1 stands at 5.83

For reference, reported pIC50 for COC1=CC(c2cc3ccccc3[nH]2)=N/C1=C\c1[nH]c(C)cc1C [OBATOCLAX MESYLATE] stands at 7.09
